Entries and their measured IC50 follow.
- target under test: AKT1 WT (Homo sapiens, UniProt P31749)
- Sequence (P31749 whole entry): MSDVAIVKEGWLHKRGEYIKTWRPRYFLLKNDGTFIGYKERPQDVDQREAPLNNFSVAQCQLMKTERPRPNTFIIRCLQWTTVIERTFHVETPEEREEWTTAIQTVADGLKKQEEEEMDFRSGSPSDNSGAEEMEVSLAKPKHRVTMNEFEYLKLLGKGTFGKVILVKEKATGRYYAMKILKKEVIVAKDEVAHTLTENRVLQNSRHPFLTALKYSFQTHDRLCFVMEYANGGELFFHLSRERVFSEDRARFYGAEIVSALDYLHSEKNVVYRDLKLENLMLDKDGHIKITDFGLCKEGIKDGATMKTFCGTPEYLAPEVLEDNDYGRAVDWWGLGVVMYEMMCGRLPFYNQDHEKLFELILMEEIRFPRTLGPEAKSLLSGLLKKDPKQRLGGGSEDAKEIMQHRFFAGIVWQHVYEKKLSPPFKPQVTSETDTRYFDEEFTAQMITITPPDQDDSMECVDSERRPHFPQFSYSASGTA
- method description: Live cell target engagement by NanoBRET competitive probe displacement, AKT1 WT
- settings: transfected HEK293 cells, 2 h at 37° C., read-out: AKT1 WT IC50: GeoMean IC50

• Nc1ncccc1-c1nc2ccc(-c3ccccc3)nc2n1-c1ccc2c(c1)CC[C@@H]2NC(=O)c1cc(C=O)c2[nH]nnc2c1 = < 10 nM

response.value for `Nc1ncccc1-c1nc2ccc(-n3cccn3)nc2n1-c1ccc2c(c1)CC[C@@H]2NC(=O)c1cc(Cl)c(O)c(C=O)c1` (field: IC50) = 10 to 100 nM

The recorded IC50 for `COc1cc(O)c(C=O)cc1C(=O)N[C@H]1CCc2cc(-n3c(-c4cccnc4N)nc4ccc(-c5ccccc5)nc43)ccc21` is 100 to 2000 nM

Notebook: `CN1CCN(c2ccc3nc(-c4cccnc4N)n(-c4ccc5c(c4)CC[C@@H]5NC(=O)c4ccc(O)c(C=O)c4)c3n2)CC1` , IC50 read as 100 to 2000 nM

For reference, reported IC50 for `Nc1ncccc1-c1nc2ccc(-n3cc(C=O)cn3)nc2n1-c1ccc2c(c1)CC[C@@H]2NC(=O)c1ccc(O)c(C=O)c1` stands at 100 to 2000 nM

Looking up `Nc1ncccc1-c1nc2ccc(-c3ccn(C(F)F)n3)nc2n1-c1ccc2c(c1)CC[C@@H]2NC(=O)c1cc(C=O)c(O)cc1F` , I see its IC50 listed as 10 to 100 nM
